Biological target: human GLP-1R (Homo sapiens, UniProt P43220)
Sequence (P43220 24-463): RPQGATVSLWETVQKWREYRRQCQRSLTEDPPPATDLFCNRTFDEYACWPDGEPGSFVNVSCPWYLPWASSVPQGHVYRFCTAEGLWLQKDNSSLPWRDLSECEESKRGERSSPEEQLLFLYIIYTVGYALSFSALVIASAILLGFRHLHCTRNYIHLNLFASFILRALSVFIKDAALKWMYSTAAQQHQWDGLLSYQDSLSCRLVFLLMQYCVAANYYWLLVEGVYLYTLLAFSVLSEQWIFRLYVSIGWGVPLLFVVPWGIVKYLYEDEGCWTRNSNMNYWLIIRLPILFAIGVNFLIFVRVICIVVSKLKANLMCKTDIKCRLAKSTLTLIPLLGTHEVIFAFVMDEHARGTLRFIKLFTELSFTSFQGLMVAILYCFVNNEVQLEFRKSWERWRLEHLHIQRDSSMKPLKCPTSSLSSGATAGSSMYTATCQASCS
Test: GLP-1 receptor in vitro calcium assay (intracellular free calcium concentration change induced via GLP-1 receptor)
Settings: PRG48 cells transfected with human GLP-1R; compound added with 250 pM GLP-1; Ca2+ response ΔF/F; read-out: Ca EC50 value
measuredProperty: EC50 (nM)
Please give a number only; it is taken to be in nM.

// below: answered compounds
Cc1ccc(S(=O)(=O)Nc2ccc(NC(=O)N[C@H](Cc3ccccc3)C(=O)N[C@@H](C)c3ccccc3)cc2)cc1 [Compound 31] = 480
Cc1ccc(S(=O)(=O)Nc2ccc(NC(=O)N[C@H](CC(C)C)C(=O)N[C@H](Cc3ccccc3)c3nc(C(C)(C)C)no3)cc2)cc1 [Compound 89] = 260
CCCCC(CC)CNC(=O)[C@@H](Cc1ccccc1)NC(=O)Nc1ccc(NS(=O)(=O)c2ccc(C(C)(C)C)cc2)cc1 (stereo partly shown) [Compound 36] = 18
CCCCCCNC(=O)[C@@H](Cc1ccccc1)NC(=O)Nc1ccc(NS(=O)(=O)c2ccc(C)cc2)cc1 [Compound 2] = 680
CCCCC(CC)CNC(=O)[C@@H](CC1CCCCC1)NC(=O)Nc1ccc(N(CCCSC)S(=O)(=O)c2ccc(C(C)(C)C)cc2)cc1 (stereo partly shown) [Compound 111] = 3.3

Recorded EC50 of CCCCCCNc1ccc(S(=O)(=O)Nc2cccc(NC(=O)N[C@H](CC3CCCCC3)C(=O)NC(C)CCCC(C)C)c2)cn1 (stereo partly shown) [Compound 109] , please.
11

# lookup: EC50 of Cc1ccc(S(=O)(=O)Nc2ccc(NC(=O)N[C@H](Cc3ccccc3)C(=O)OC(C)(C)C)cc2)cc1 [Compound 62]
930

Fill blank: measured EC50 of the compound Cc1ccc(S(=O)(=O)Nc2ccc(NC(=O)N[C@H](CC3CCCCC3)C(=O)NCCC3CCCCC3)cc2)cc1 [Compound 45] is ____.
22

Returns the measured EC50 for the input compound. Input: CC(C)(C)c1ccc(S(=O)(=O)Nc2ccc(NC(=O)N[C@H](CC3CCCCC3)c3nc(C(C)(C)C)no3)cc2)cc1 [Compound 82]
16

For Cc1ccc(S(=O)(=O)Nc2ccc(NC(=O)N[C@@H](Cc3c[nH]c4ccccc34)C(=O)OC(C)(C)C)cc2)cc1 [Compound 67] , what is its reported EC50?
660

Reported EC50, compound CC(C)CCCC(C)NC(=O)[C@@H](Cc1c[nH]c2ccccc12)NC(=O)Nc1cccc(NS(=O)(=O)c2ccc(C(C)(C)C)cc2)c1 (stereo partly shown) [Compound 94] : ____
180

Which measured EC50 value corresponds to Cc1ccc(S(=O)(=O)Nc2ccc(NC(=O)N[C@H](Cc3c[nH]c4ccccc34)C(=O)NC3CCCCCC3)cc2)cc1 [Compound 43] ?
160

Find the recorded EC50 belonging to CCCCCCCCNC(=O)[C@@H](Cc1ccccc1)NC(=O)Nc1ccc(NS(=O)(=O)c2ccc(C)cc2)cc1 [Compound 5] and report it.
51

Each recorded value in this set is attributed to patent US20190022039A1.
